All figures here come from patent US20260242419A1.

Target: Recombinant human IL-1β (BioLegend 579404) (human, UniProt P01584 117-269)
Test: cell-based or functional assay
Starred links: 1 amine or outer side, 2 acyl side, 3 side chain; linkers in the order of their positions; H or OH if unused. Non-standard residues stand in square brackets, D forms with d. AEF4PyrimCO = (S)-2-amino-3-(4-(2-(pyrimidine-4-carboxamido)ethoxy)phenyl)propanoic acid, O=C(NCCOc1ccc(C[C@H](N[*:1])C(=O)[*:2])cc1)c1ccncn1; dPro(4R-(4-pyridylmethyl)) = O=C(O)[C@H]1C[C@@H](Cc2ccncc2)CN1; Trp(βS-Me,4-F) = C[C@@H](c1c[nH]c2cccc(F)c12)[C@H](N)C(=O)O; Bip(4'-COOH) = N[C@@H](Cc1ccc(-c2ccc(C(=O)O)cc2)cc1)C(=O)O; dPro(4R-Bzl(4-F)) = O=C(O)[C@H]1C[C@@H](Cc2ccc(F)cc2)CN1; dPro(3S-(4-F-Bn)) = O=C(O)[C@@H]1NCC[C@@H]1Cc1ccc(F)cc1; 1Nal(3S-Me) = C[C@@H](c1cccc2ccccc12)[C@H](N)C(=O)O; Ala(piperazin-1-yl) = N[C@@H](CN1CCNCC1)C(=O)O; Ala(pyrimidin-5-yl) = N[C@@H](Cc1cncnc1)C(=O)O; Phe(4-COOH) = N[C@@H](Cc1ccc(C(=O)O)cc1)C(=O)O; Bip = N[C@@H](Cc1ccc(-c2ccccc2)cc1)C(=O)O; Pro(cis-4-F) = O=C(O)[C@@H]1C[C@H](F)CN1; Ala(4-THP) = N[C@@H](CC1CCOCC1)C(=O)O; hTyr = N[C@@H](CCc1ccc(O)cc1)C(=O)O; d(αMeD) = C[C@@](N)(CC(=O)O)C(=O)O; 4Pal = N[C@@H](Cc1ccncc1)C(=O)O; Dab = NCC[C@H](N)C(=O)O; Aib = CC(C)(N)C(=O)O
# reported MRC5 IC50; entries follow

binder: cyclo([Bip(4'-COOH)][4Pal][Phe(4-COOH)]G[Pro(cis-4-F)][Trp(βS-Me,4-F)][Aib]SW[d(αMeD)][Ala(piperazin-1-yl)]Q[Dab]G[dPro(3S-(4-F-Bn))]) (ring closure inferred) [SEQ ID NO 287]
MRC5 IC50 [nM]: 0.011
//
binder: cyclo([Bip(4'-COOH)][4Pal][Phe(4-COOH)]G[Pro(cis-4-F)][Trp(βS-Me,4-F)][Aib]SW[d(αMeD)][hTyr]Q[Dab]G[dPro(4R-(4-pyridylmethyl))]) (ring closure inferred) [SEQ ID NO 256]
MRC5 IC50 [nM]: 0.012
//
binder: cyclo([Bip][4Pal][Phe(4-COOH)]G[Pro(cis-4-F)][1Nal(3S-Me)][Aib]SW[d(αMeD)][Ala(4-THP)]Q[Dab]G[dPro(4R-(4-pyridylmethyl))]) (ring closure inferred) [SEQ ID NO 290]
MRC5 IC50 [nM]: 0.018
//
binder: cyclo([Bip(4'-COOH)][4Pal][Phe(4-COOH)]G[Pro(cis-4-F)][Trp(βS-Me,4-F)][Aib]EW[Aib][Ala(pyrimidin-5-yl)]Q[Dab]G[dPro(3S-(4-F-Bn))]) (ring closure inferred) [SEQ ID NO 346]
MRC5 IC50 [nM]: 0.01
//
binder: cyclo([AEF4PyrimCO][4Pal][Phe(4-COOH)]G[Pro(cis-4-F)][Trp(βS-Me,4-F)][Aib]SW[Aib][Ala(pyrimidin-5-yl)]Q[Dab]G[dPro(4R-(4-pyridylmethyl))]) (ring closure inferred; not fully specified (N-terminus); printed as cyclic, AEF4PyrimCO-4Pal-Phe4COOH-G-Proc4F-SbMeW4F-Aib-S-W-Aib-PyrimAla-Q-Dab-G-dProc4CH24Pal) [SEQ ID NO 305]
MRC5 IC50 [nM]: 0.016
//
binder: cyclo([Bip(4'-COOH)][4Pal][Phe(4-COOH)]G[Pro(cis-4-F)][Trp(βS-Me,4-F)][Aib]SW[d(αMeD)][4Pal]Q[Dab]G[dPro(4R-Bzl(4-F))]) (ring closure inferred) [SEQ ID NO 324]
MRC5 IC50 [nM]: 0.013
